target: 3-oxo-5-alpha-steroid 4-dehydrogenase 1 (Homo sapiens); test: Inhibition of steroid 5-alpha reductase type 1 expressed in HEK 293 cells at 10 uM; assay type: cell-based; conditions: HEK293
Sequence (P18405 whole entry): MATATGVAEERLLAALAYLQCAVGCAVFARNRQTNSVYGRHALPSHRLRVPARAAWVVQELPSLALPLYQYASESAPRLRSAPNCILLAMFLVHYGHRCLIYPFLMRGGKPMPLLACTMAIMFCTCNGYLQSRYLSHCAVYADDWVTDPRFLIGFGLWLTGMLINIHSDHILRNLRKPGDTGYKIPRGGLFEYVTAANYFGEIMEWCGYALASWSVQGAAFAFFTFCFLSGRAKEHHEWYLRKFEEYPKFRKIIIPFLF
ATTRIBUTE_MEASURED: inhibition (%)

Some compounds with known inhibition results, for comparison:
In plain terms, C=CCNC(=O)COc1ccc(N2C=CC(=O)CC2C)cc1 (stereo not drawn) has a documented inhibition of 8

The compound listed as `CC(=O)SCCCCCCCCCCCCCCCC(=O)NCCOCCOC(=O)CC/C=C/CNC(=O)COc1ccc(-c2ccc(=O)n(C)c2)cc1` shows inhibition equal to 33

Per the records, this compound ( `Cn1cc(-c2ccc(C(=O)Cc3ccccc3)cc2)ccc1=O` ) has inhibition equal to 61

Given item `CC(=O)SCCCCCCCCCCCCCCCC(=O)NCCOC(=O)CC/C=C/CNC(=O)COc1ccc(-c2ccc(=O)n(C)c2)cc1` , the value recorded as its inhibition is 43

`C=CCNC(=O)COc1ccc(-c2ccc(=O)n(C)c2)cc1` yielded inhibition of 6

Entry under test: `CC(C)NC(=O)COc1ccc(-c2ccc(=O)n(C)c2)cc1` . Its inhibition was 8

P. CC1CC(=O)C=CN1c1ccc(OCC(=O)N(C(C)C)C(C)C)cc1 (stereo not drawn)
Q. CC(C)N(C(=O)COc1ccc(C2CCC(=O)N(C)C2)cc1)C(C)C (stereo not drawn)
Identify the entry with the larger inhibition. Options: P and Q # respond with the chosen item's label Q

* * *

molecular target: 3-oxo-5-alpha-steroid 4-dehydrogenase 1 (Homo sapiens); test: Inhibition of steroid 5-alpha reductase type 1 expressed in HEK 293 cells
ATTRIBUTE_MEASURED: IC50 (nM)
Form entry: value (nM) — number only.

For CC(C)(C)NC(=O)[C@H]1CC[C@H]2[C@@H]3CC[C@H]4NC(=O)C=C[C@]4(C)[C@H]3CC[C@]12C [FINASTERIDE] the compound record lists IC50 as 453
